- Test system: CTB-1 (B-Cell Non-Hodgkin's Lymphoma);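 note: after 72 h of two-drug dosing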
- ASSAY_OVERVIEW: Bliss excess, mean over the matrix (fraction); higher = more synergy
Where Bliss excess equals or exceeds -0.04, the correct label is 1; where it does not, the label is 0.

Ask: Threshold query (Bliss excess >= -0.04) on Cc1c2c(nn1C)CSCc1cc(n(C)n1)CSc1cc(c3ccccc3c1)OCCCc1c(C(=O)O)n(C)c3c-2c(Cl)ccc13 [AZD5991] + Cc1cc2ncnn2cc1Nc1ncc2c(n1)n(C1CCOCC1)c(=O)n2C [AZD7648] (first compound max 1 µM, 7x7, partner max 10 µM)
Reply: 1

Ask: One more compound: C=CCn1c(=O)c2cnc(Nc3ccc(N4CCN(C)CC4)cc3)nc2n1-c1cccc(C(C)(C)O)n1 [AZD1775] + O=C(c1cc(Cc2n[nH]c(=O)c3ccccc23)ccc1F)N1CCN(C(=O)C2CC2)CC1 [Olaparib] (first compound max 1 µM, partner max 10 µM)
Reply: 0

Ask: One more compound: CN(C)CCCOc1ccc(-c2ccc3ncc4c(c3c2)n(C2CCOCC2)c(=O)n4C)cn1 [AZD0156] + C[C@@H]1COCCN1C2=NC(=NC(=C2)C3(CC3)[S@](=N)(=O)C)C4=C5C=CNC5=NC=C4 [AZD6738] (first compound max 1 µM, 7x7, partner max 10 µM)
Reply: 0

Ask: One more compound: Cc1c2c(nn1C)CSCc1cc(n(C)n1)CSc1cc(c3ccccc3c1)OCCCc1c(C(=O)O)n(C)c3c-2c(Cl)ccc13 [AZD5991] + C1CN(CCC1(C(=O)N[C@@H](CCO)C2=CC=C(C=C2)Cl)N)C3=NC=NC4=C3C=CN4 [Capivasertib] (first compound max 1 µM, 7x7, partner max 3 µM)
Reply: 1

Ask: One more compound: CN(CCO)CC[C@H](CSc1ccccc1)Nc1ccc(S(=O)(=O)NC(=O)c2ccc(N3CCC([C@@H](O)c4ccccc4-c4ccc(Cl)cc4)CC3)cc2)cc1S(=O)(=O)C(F)(F)F [AZD4320] + Cn1cnc2c(F)c(Nc3ccc(Br)cc3Cl)c(C(=O)NOCCO)cc21 [Selumetinib] (first compound max 1 µM, 7x7, partner max 3 µM)
Reply: 0

Ask: One more compound: Cc1c2c(nn1C)CSCc1cc(n(C)n1)CSc1cc(c3ccccc3c1)OCCCc1c(C(=O)O)n(C)c3c-2c(Cl)ccc13 [AZD5991] + Cn1cnc2c(F)c(Nc3ccc(Br)cc3Cl)c(C(=O)NOCCO)cc21 [Selumetinib] (first compound max 1 µM, 7x7, partner max 3 µM)
Reply: 1

Ask: One more compound: COc1cccc(OCCCN)c1-c1cc(Nc2cnc(C#N)cn2)n[nH]1 [Prexasertib] + CCc1c2c(nc3ccc(O)cc13)-c1cc3c(c(=O)n1C2)COC(=O)[C@]3(O)CC [SN-38] (first compound max 1 µM, 7x7, partner max 0.3 µM)
Reply: 0
